assay: ATG_TGFb_CIS: Attagene CIS-FACTORIAL HepG2 Assay for human Transforming Growth Factor (TGF) (AID 2282967); details: HepG2 Attagene CIS TGFb reporter, mRNA transcription; actives raise or lower the signal
Activity calls are given as the source filed them. The calls were made as follows: active = hit-call score of the fitted dose curve at least 0.9, where 1 is the maximum; inactive = score below 0.9.
Labels: active, inactive

1) Cc1ccc2nc3sc(=O)sc3nc2c1; inactive
2) Nc1c(Oc2ccccc2)cc(O)c2c1C(=O)c1ccccc1C2=O; inactive
3) O=C(Nc1ccc(Br)cc1)c1cc(Br)cc(Br)c1O; active
4) CCC[CH2][Sn]([CH2]CCC)([CH2]CCC)[CH2]CCC; inactive
5) CC(C)N(C(=O)CCl)c1ccccc1; active
6) C=CC(=O)NC(C)(C)CC(C)=O; inactive
7) ClCc1ccccc1Cl; inactive

----------
Molecular target: Retinoic acid receptor alpha (Homo sapiens) (UniProt P10276)
Sequence (P10276 whole entry, looked up): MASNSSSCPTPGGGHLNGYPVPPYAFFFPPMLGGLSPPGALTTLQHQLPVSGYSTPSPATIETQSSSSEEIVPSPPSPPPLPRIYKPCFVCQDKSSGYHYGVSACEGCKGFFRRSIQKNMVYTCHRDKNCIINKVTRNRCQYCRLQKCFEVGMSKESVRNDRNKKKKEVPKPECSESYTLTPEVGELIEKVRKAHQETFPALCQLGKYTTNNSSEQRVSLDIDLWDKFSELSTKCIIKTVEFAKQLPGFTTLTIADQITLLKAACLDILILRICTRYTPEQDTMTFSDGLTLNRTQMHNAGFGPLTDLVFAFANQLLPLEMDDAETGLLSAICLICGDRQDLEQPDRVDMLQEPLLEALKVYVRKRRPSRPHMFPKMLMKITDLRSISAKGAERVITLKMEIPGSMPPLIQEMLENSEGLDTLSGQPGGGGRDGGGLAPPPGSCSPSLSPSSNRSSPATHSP
Test: ATG_DR5_RAR_CIS: Attagene CIS-FACTORIAL HepG2 Assay for human Retinoic Acid Receptor Alpha (RARE), DR5 submotif (AID 2282934)
Conditions: HepG2 Attagene cis-factorial RARE DR5 reporter, mRNA; actives raise or lower the signal
Method: ATG_CIS is a cell-based, multiplexed-readout assay that uses HepG2, a human liver cell line, with measurements taken at 24 hours after chemical dosing in a 24-well plate.ATG_DR5_RAR_CIS is one of 52 assay component(s) measured or calculated from the ATG_CIS assay. […] This assay endpoint, ATG_DR5_CIS, was analyzed with bidirectional fitting relative to DMSO as the negative control and baseline of activity. […]
Active and inactive are the calls of the source. Rule for the calls: active = hit-call score of the fitted dose curve at least 0.9, where 1 is the maximum; inactive = score below 0.9.
Labels: active, inactive

1) OC(c1ccc(Cl)cc1)(c1ccc(Cl)cc1)c1cccnc1; inactive
2) COC(F)(C(F)(F)C(F)(F)F)C(F)(C(F)(F)F)C(F)(F)F (stereo not drawn); inactive
3) O=[N+]([O-])c1ccc(Nc2ccccc2)cc1; inactive
4) Nc1ccc(-c2ccccc2)cc1; inactive
5) CC(=O)CN(CC(C)=O)N=O; inactive
6) Cc1ccccc1OP(=O)(Oc1ccccc1)Oc1ccccc1; active
7) CC(C)[C@@H](Nc1ccc(C(F)(F)F)cc1Cl)C(=O)OC(C#N)c1cccc(Oc2ccccc2)c1 (stereo partly drawn); inactive
8) O=C(N[C@H]1CN2CCC1CC2)c1ccc2c(c1)OCCO2; inactive
9) CCNc1nc(NCC)nc(SC)n1; inactive
10) O=S1OC[C@@H]2[C@H](CO1)[C@]1(Cl)C(Cl)=C(Cl)[C@@]2(Cl)C1(Cl)Cl (stereo partly drawn); inactive
11) Cc1ccc(OP(=O)(Oc2ccc(C)cc2C)Oc2ccc(C)cc2C)c(C)c1; inactive
12) C[C@H]1C(=O)O[C@@H]2CCN3CC=C(COC(=O)[C@](C)(O)[C@]1(C)O)[C@H]23; inactive
13) Oc1c(Br)cc(Br)cc1Br; inactive
14) O=C/C(Cl)=C(/Cl)C(=O)O; inactive
15) O=NN1CCCCCC1; inactive
16) C=C(C)[C@@H]1CC=C(C=O)CC1; inactive
17) OCC(c1ccc(Cl)cc1)c1ccc(Cl)cc1; inactive
18) O=C(Nc1ccc(Br)cc1)c1cc(Br)cc(Br)c1O; active
19) CCCCS(=O)(=O)Cl; inactive
20) CC1CC(=O)O1 (stereo not drawn); inactive
21) C=CC(Cl)CCl (stereo not drawn); inactive
22) Nc1c(Oc2ccccc2)cc(O)c2c1C(=O)c1ccccc1C2=O; inactive
23) N#Cc1ccc(Cl)cc1; inactive
24) O=CCCl; inactive
25) BrCc1ccc(Br)cc1; inactive
26) Clc1cccc(Cl)c1Cl; inactive
27) C=CC(=O)[O][Sn]([CH2]CCC)([CH2]CCC)[CH2]CCC; active
28) Cc1cc(SCc2sc(-c3ccc(C(F)(F)F)c(F)c3)nc2C)ccc1OCC(=O)O; inactive
29) O=C(CCl)Nc1ccccc1; inactive
30) CCOC(=O)c1ccccc1S(=O)(=O)NC(=O)Nc1nc(Cl)cc(OC)n1; inactive
31) Cc1cc(-c2cc(C)c(N)c(C)c2)cc(C)c1N; inactive
32) CCOP(=S)(OCC)OP(=S)(OCC)OCC; inactive
33) O=C=Nc1ccc(Cl)cc1; inactive
34) C[As+](C)(C)CC(=O)[O-]; inactive
35) COP(=S)(OC)Oc1cc(Cl)c(I)cc1Cl; inactive
36) Nc1ncn[nH]1; inactive
37) OC[P+](CO)(CO)CO; inactive
38) CC(C)(COCC1CO1)COCC1CO1 (stereo not drawn); inactive
39) C=CC(F)(C(F)(F)F)C(F)(F)C(F)(F)F (stereo not drawn); inactive
40) CNC(=O)N(C)c1nc2ccccc2s1; inactive
41) COc1ccc([N+](=O)[O-])cc1O; inactive
42) CCCCN(CCCC)C(=S)[S-].CCCCN(CCCC)C(=S)[S-].[Ni+2]; inactive
43) CCCCCCCCCCCCCl; inactive
44) CN(N=O)C(N)=O; inactive
45) CC(C)(C1CCC(O)CC1)C1CCC(O)CC1 (stereo not drawn); inactive
46) COCCl; inactive
47) CC(=O)C(F)(F)C(F)(F)F; inactive
48) Nc1nc(=S)[nH][nH]1; inactive
